Reference for the values: patent US20250177546A1

- TGT: T1, huROR1-His (human ROR1 ECD AA30-406 with C-terminal His tag, made in house) (human, UniProt Q01973 30-406)
- T1 construct: range 30-406; Expressed in HEK293; also called antigen protein huROR1-His; not shown: C-terminal His tag
- TEST METHOD NOTES: Gator (BLI) Advanced Kinetics; antibody 30 nM, huROR1-His 480-7.5 nM
ASSAY ENDPOINT: kon
# output: number + unit

[[record]]
binder = "M71 (chimeric antibody) (antibody, human IgG1, kappa, V domains shown, ExpiCHO expression) VH: EVMLVESGGGLVKPGGSLKLSCAASGFTFSRYAMSWVRQTPEKRLEWVASINRGGTTYYPDSVKGRFTISRDNARDILYLQMSSLRSEDTAIYYCARDYYYGSSLYNGMDFWGQGTSVIVSS VL: DIQMTQSPSSMYASLGERVTITCKASQDINSYLSWFQQKPGKSPKTLIYRANRLVDGVPSRFSGSGSGQDYSLTISSLESEDMGIYYCLQFDEFPYTFGGGTKLEIKR"
assay_endpoint = "kon"
result = "351000 M⁻¹ s⁻¹"


Switching to the query record.
Exercise: Recorded kon for C77 (chimeric antibody) (antibody, human IgG1, kappa, V domains shown, ExpiCHO expression) VH: EVKLVESGGGLVKPGGSLKLSCAASGFSFSNYAMSWVRQTPEKRLEWVASINSGVTTYYPDSVKGRFTVSRDNARNILYLHMTGLRSEDTAIYYCSRGYYYGGSPYWHFDVWGAGTTVTVSS VL: DIQMTQSPSSMHASLGERVTITCKASQDINNYVSWFQQKPGKSPKTLIYRANRLVDGVPSRFSGSGSGQDYSFTISSLEYEDMGIYYCLQFDEFPYTFGGGTKLEIKR , please?
Key: 314000 M⁻¹ s⁻¹
